Kindly state cyt c for each of the entries shown.
- System: cytochrome c
- Format: cell-based, mouse
- assay.context: composite Z-score vs DMSO; Conc 20 μM
Where a SMILES comes first, the peptide text is derived from it.
Numbers only.

Reference set (5 entries):
{"compound": "CC(C)=CCC/C(C)=C/CC/C(C)=C/CO [farnesol]", "cyt c": "−0.437"}
{"compound": "CC1(C)[C@@H](O[C@H]2O[C@H](C(=O)O)[C@@H](O)[C@H](O)[C@H]2O[C@@H]2O[C@H](C(=O)O)[C@@H](O)[C@H](O)[C@H]2O)CC[C@]2(C)[C@H]3C(=O)C=C4[C@@H]5C[C@@](C)(C(=O)O)CC[C@]5(C)CC[C@@]4(C)[C@]3(C)CC[C@@H]12 [glycyrrhizic acid]", "cyt c": 0.339}
{"compound": "CO[C@H]1C[C@H](O[C@H]2[C@H](C)[C@@H](O[C@@H]3O[C@H](C)C[C@H](N(C)C)[C@H]3OC(C)=O)[C@@H](C)C[C@@]3(CO3)C(=O)[C@H](C)[C@@H](OC(C)=O)[C@@H](C)[C@@H](C)OC(=O)[C@@H]2C)O[C@@H](C)[C@@H]1OC(C)=O [troleandomycin]", "cyt c": "−0.063"}
{"compound": "COc1cc(O)ccc1C(C)=O [isopeonol]", "cyt c": 0.734}
{"compound": "CC(C)C[C@H](N)C(=O)N[C@@H](C)C(=O)O [L-leucyl-L-alanine] (H-Leu-Ala-OH)", "cyt c": "−0.861"}

Would you kindly look at the next entry?
Hi! What's the reported cyt c for CCCCCC(=O)Cc1cc(O)cc(O)c1C(=O)Oc1cc(CC(=O)CCCCC)c(C(=O)O)c(OC)c1 [arthonioic acid] on cytochrome c? −0.019

Ref: patent US20090143279A1
